- EXPERIMENT_NOTES: Plasma pharmacokinetics, non-compartmental analysis
- Type: in vivo, human
- EXPERIMENTAL_PARAMETERS: human, plasma, oral; 200 mg QD; C1 D15; CV 62.2%; n = 18; read-out: Steady-state geometric mean maximum plasma concentration (Cmax)
VALUE_TYPE: Cmax (ng/mL)
# output: bare number, implied unit ng/mL

Ask: I have this compound here, Cn1cc(-c2cc3c(N4CCN(c5ncc([C@@](C)(N)c6ccc(F)cc6)cn5)CC4)ncnn3c2)cn1 , and I need its recorded Cmax.
Result: 433

---

- EXPERIMENT_NOTES: Plasma pharmacokinetics, non-compartmental analysis
- Assay type: in vivo, human
- EXPERIMENTAL_PARAMETERS: human, plasma, oral, range across doses; read-out: Mean plasma elimination half-life
VALUE_TYPE: half-life

Ask: I have this compound here, Cn1cc(-c2cc3c(N4CCN(c5ncc([C@@](C)(N)c6ccc(F)cc6)cn5)CC4)ncnn3c2)cn1 [avapritinib] , and I need its recorded half-life.
Result: 19.8 to 38.3 h

---

- EXPERIMENT_NOTES: Plasma pharmacokinetics, non-compartmental analysis
- Format: in vivo, human
- EXPERIMENTAL_PARAMETERS: human, plasma, oral, Cycle 1 Day 15; read-out: Steady state t½
VALUE_TYPE: half-life

Ask: I have this compound here, Cn1cc(-c2cc3c(N4CCN(c5ncc([C@@](C)(N)c6ccc(F)cc6)cn5)CC4)ncnn3c2)cn1 , and I need its recorded half-life.
Result: > 20 h

---

- EXPERIMENT_NOTES: Plasma pharmacokinetics, non-compartmental analysis
- Type: in vivo, human
- EXPERIMENTAL_PARAMETERS: human, plasma, oral; 200 mg QD; C1 D15; CV 54.2%; n = 16; read-out: Steady-state geometric mean AUC0-τ
VALUE_TYPE: AUC (ng·h/mL)
# output: bare number, implied unit ng·h/mL

Ask: I have this compound here, Cn1cc(-c2cc3c(N4CCN(c5ncc([C@@](C)(N)c6ccc(F)cc6)cn5)CC4)ncnn3c2)cn1 [avapritinib] , and I need its recorded AUC.
Result: 7340
